Entry source: ChEMBL document CHEMBL4028909

targetOrSystem: Cytochrome P450 2A6 (Homo sapiens)
Sequence (P11509 whole entry): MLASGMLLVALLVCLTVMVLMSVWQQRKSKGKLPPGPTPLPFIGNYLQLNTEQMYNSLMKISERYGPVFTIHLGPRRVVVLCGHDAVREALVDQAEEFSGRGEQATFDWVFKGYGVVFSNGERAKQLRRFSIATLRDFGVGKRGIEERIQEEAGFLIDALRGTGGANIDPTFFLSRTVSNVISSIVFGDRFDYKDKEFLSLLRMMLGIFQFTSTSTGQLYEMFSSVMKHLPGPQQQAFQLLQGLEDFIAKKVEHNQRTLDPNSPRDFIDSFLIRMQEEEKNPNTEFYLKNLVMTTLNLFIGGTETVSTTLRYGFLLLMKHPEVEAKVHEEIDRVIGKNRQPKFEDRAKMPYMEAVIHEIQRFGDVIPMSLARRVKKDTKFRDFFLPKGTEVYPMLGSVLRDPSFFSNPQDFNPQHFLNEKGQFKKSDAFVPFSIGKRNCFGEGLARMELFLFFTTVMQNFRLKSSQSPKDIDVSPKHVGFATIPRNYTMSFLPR
testSummary: Inhibition of CYP2A6 in human liver microsomes preincubated for 5 mins followed by addition of NADPH generating system measured after 20 mins by LC-MS/MS analysis
Assay type: ADME
pIC50: −log10 of the molar value.
quantity: pIC50

pIC50 reading for COCCCc1ccc2oc(-c3ccc(OC)c(OC)c3)cc2c1 : < 4.30

----------
testSummary: Clearance in iv dosed rat
Type: ADME, organism-based
testConditions: in vivo
quantity: clearance (mL/min/kg)
# output: bare number, implied unit mL/min/kg

clearance reading for COCCCc1ccc2oc(-c3ccc(OC)c(OC)c3)cc2c1 : 33

----------
testSummary: Oral bioavailability in mouse at 3 mg/kg
Assay type: ADME, organism-based
testConditions: in vivo
quantity: bioavailability (%)
# output: bare number, implied unit %

bioavailability reading for COCCCc1ccc2oc(-c3ccc(OC)c(OC)c3)cc2c1 : 21.4

----------
testSummary: Oral bioavailability in mouse at 10 mg/kg
Type: ADME, organism-based
testConditions: in vivo
quantity: bioavailability (%)
# output: bare number, implied unit %

bioavailability reading for COCCCc1ccc2oc(-c3ccc(OC)c(OC)c3)cc2c1 : 51.9

----------
testSummary: Cmax in po dosed dog
Assay type: ADME, organism-based, Canis lupus familiaris
Parameters: route oral
testConditions: in vivo
quantity: Cmax (ng/mL)
# output: bare number, implied unit ng/mL

Cmax reading for COCCCc1ccc2oc(-c3ccc(OC)c(OC)c3)cc2c1 : 1610

----------
testSummary: Cmax in po dosed rat
Assay type: ADME, organism-based
Design: route oral
testConditions: in vivo
quantity: Cmax (µg/mL)
# output: bare number, implied unit µg/mL

Cmax reading for COCCCc1ccc2oc(-c3ccc(OC)c(OC)c3)cc2c1 : 0.421

----------
testSummary: AUC in po dosed dog
Assay type: ADME, organism-based, Canis lupus familiaris
testConditions: in vivo
quantity: AUC (ng·h/mL)
# output: bare number, implied unit ng·h/mL

AUC reading for COCCCc1ccc2oc(-c3ccc(OC)c(OC)c3)cc2c1 : 4190

----------
testSummary: Half life in po dosed rat
Assay type: ADME, organism-based
testConditions: in vivo
quantity: half-life (h)
# output: bare number, implied unit h

half-life reading for COCCCc1ccc2oc(-c3ccc(OC)c(OC)c3)cc2c1 : 3.8

----------
testSummary: Cmax in po dosed ICR mouse
Assay type: ADME, organism-based
Design: route oral
testConditions: in vivo
quantity: Cmax (ng/mL)
# output: bare number, implied unit ng/mL

Cmax reading for COCCCc1ccc2oc(-c3ccc(OC)c(OC)c3)cc2c1 : 944

----------
testSummary: Cmax in mouse at 3 mg/kg, po
Type: ADME, organism-based
Parameters: dose 3 mg/kg, route oral
testConditions: in vivo
quantity: Cmax (ng/mL)
# output: bare number, implied unit ng/mL

Cmax reading for COCCCc1ccc2oc(-c3ccc(OC)c(OC)c3)cc2c1 : 102
